Reference source: ChEMBL document CHEMBL3091364

Field: inhibition. Provide a value for each of the molecules that follow.
Experimental system: D(1B) dopamine receptor (Homo sapiens)
Measurement protocol: Inhibition of dopaminergic D5 receptor (unknown origin) at 10 uM relative to control
Give just the numeric value; % need not be written.

Prompt: Specify measured inhibition for Cl.NCc1ccc(OCc2ccccc2F)cc1 .
Response: 2.3

Prompt: Specify measured inhibition for Cl.NCc1ccc(OCc2ccccc2)cc1 .
Response: 1.9

Prompt: Specify measured inhibition for Cl.NCc1ccc(OCc2cccc(Cl)c2)cc1 .
Response: -1.6

Prompt: Specify measured inhibition for Cl.NCc1ccc(OCc2ccccc2OC(F)(F)F)cc1 .
Response: 3.9

Prompt: Specify measured inhibition for Cl.NCc1ccc(OCc2cccc(F)c2)cc1 .
Response: -0.5

Prompt: Specify measured inhibition for Cl.NCc1ccc(OCc2ccc(Cl)cc2)cc1 .
Response: 6.4

Prompt: Specify measured inhibition for Cl.NCc1ccc(OCc2ccc(F)cc2)cc1 .
Response: 1

Prompt: Specify measured inhibition for Cl.NCc1ccc(OCc2ccc(OC(F)(F)F)cc2)cc1 .
Response: 3.5

Prompt: Specify measured inhibition for Cl.NCc1ccc(OCc2cccc(OC(F)(F)F)c2)cc1 .
Response: 0.4

###

Experimental system: Sodium-dependent serotonin transporter (Homo sapiens) (UniProt P31645)
Sequence (P31645 whole entry, looked up): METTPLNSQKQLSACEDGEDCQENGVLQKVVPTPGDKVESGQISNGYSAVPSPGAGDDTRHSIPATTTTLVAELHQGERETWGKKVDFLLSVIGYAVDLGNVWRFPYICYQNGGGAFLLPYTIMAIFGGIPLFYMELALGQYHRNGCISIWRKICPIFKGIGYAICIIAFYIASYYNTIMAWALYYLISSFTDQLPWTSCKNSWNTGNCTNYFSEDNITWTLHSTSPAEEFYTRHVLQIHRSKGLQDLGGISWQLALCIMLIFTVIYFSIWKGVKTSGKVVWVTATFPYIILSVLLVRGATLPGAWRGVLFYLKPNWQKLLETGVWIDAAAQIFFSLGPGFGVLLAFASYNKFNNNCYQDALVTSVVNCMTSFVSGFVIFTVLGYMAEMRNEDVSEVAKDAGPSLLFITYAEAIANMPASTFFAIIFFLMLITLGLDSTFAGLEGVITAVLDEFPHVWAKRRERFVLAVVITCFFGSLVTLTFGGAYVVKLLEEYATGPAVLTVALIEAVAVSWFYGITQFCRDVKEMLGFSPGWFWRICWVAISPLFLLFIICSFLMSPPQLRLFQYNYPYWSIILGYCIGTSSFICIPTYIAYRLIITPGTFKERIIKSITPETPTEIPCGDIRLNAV
Measurement protocol: Inhibition of SERT (unknown origin) at 10 uM relative to control
Attribute measured: inhibition (%)
Give just the numeric value; % need not be written.

Prompt: Specify measured inhibition for Cl.NCc1ccc(OCc2cccc(OC(F)(F)F)c2)cc1 .
Response: 55.7

Prompt: Specify measured inhibition for Cl.NCc1ccc(OCc2ccccc2)cc1 .
Response: 49.1

Prompt: Specify measured inhibition for Cl.NCc1ccc(OCc2ccc(OC(F)(F)F)cc2)cc1 .
Response: 10.6

Prompt: Specify measured inhibition for Cl.NCc1ccc(OCc2ccccc2OC(F)(F)F)cc1 .
Response: 31.4

Prompt: Specify measured inhibition for Cl.NCc1ccc(OCc2ccc(Cl)cc2)cc1 .
Response: 53.8

Prompt: Specify measured inhibition for Cl.NCc1ccc(OCc2ccc(F)cc2)cc1 .
Response: 71.3

Prompt: Specify measured inhibition for Cl.NCc1ccc(OCc2ccccc2F)cc1 .
Response: 34.4

Prompt: Specify measured inhibition for Cl.NCc1ccc(OCc2cccc(F)c2)cc1 .
Response: 83.4

Prompt: Specify measured inhibition for Cl.NCc1ccc(OCc2cccc(Cl)c2)cc1 .
Response: 76.5

###

Experimental system: Muscarinic acetylcholine receptor M1 (Homo sapiens)
Measurement protocol: Inhibition of muscarinergic M1 receptor (unknown origin) at 10 uM relative to control
Tick Criterion met if inhibition is 30% or greater. Tick Criterion not met if inhibition is less than 30%.

Prompt: Given Cl.NCc1ccc(OCc2ccc(OC(F)(F)F)cc2)cc1 , state whether its inhibition is at least 30%.
Response: Criterion not met

Prompt: Given Cl.NCc1ccc(OCc2ccc(F)cc2)cc1 , state whether its inhibition is at least 30%.
Response: Criterion not met

Prompt: Given Cl.NCc1ccc(OCc2cccc(Cl)c2)cc1 , state whether its inhibition is at least 30%.
Response: Criterion not met

Prompt: Given Cl.NCc1ccc(OCc2ccc(Cl)cc2)cc1 , state whether its inhibition is at least 30%.
Response: Criterion not met

Prompt: Given Cl.NCc1ccc(OCc2cccc(F)c2)cc1 , state whether its inhibition is at least 30%.
Response: Criterion met

Prompt: Given Cl.NCc1ccc(OCc2ccccc2F)cc1 , state whether its inhibition is at least 30%.
Response: Criterion met

Prompt: Given Cl.NCc1ccc(OCc2ccccc2OC(F)(F)F)cc1 , state whether its inhibition is at least 30%.
Response: Criterion met

Prompt: Given Cl.NCc1ccc(OCc2ccccc2)cc1 , state whether its inhibition is at least 30%.
Response: Criterion not met
